- Test system: LXRb homodimer (NR concentration 270 nM)
- procedure text: PBM binding z-score (relative to random genomic background probes); higher = stronger binding; sequences stand for … in GC…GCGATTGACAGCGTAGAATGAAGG
Give measured PBM binding z-score for each item. Keep answers brief.
Give bare numbers.

sequence text | value measured
TCTCGGAGGTCACGAAAGGTCAGAGCTCGACATC | 2.06
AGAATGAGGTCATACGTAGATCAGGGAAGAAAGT | 1.92

Alright, here's another sequence for you.
Query block: Recorded PBM binding z-score for "CAAACTAGGTCAAAAGGTCAAAGTCCGCTTCCCG" , please?
Result block: 2.63
